- SYSTEM UNDER TEST: CDK1/Cyclin B1, GST-tag (Homo sapiens (Human), UniProt P06493)
- Sequence (P06493 whole entry): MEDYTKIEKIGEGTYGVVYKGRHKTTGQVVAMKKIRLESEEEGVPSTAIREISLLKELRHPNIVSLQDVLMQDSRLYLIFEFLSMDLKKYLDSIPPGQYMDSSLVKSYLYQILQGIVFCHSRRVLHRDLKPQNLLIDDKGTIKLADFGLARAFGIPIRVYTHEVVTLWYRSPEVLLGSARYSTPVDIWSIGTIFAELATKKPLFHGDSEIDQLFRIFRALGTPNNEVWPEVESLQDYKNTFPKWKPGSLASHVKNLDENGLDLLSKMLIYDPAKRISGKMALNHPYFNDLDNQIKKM
- Sequence (P14635 whole entry partner): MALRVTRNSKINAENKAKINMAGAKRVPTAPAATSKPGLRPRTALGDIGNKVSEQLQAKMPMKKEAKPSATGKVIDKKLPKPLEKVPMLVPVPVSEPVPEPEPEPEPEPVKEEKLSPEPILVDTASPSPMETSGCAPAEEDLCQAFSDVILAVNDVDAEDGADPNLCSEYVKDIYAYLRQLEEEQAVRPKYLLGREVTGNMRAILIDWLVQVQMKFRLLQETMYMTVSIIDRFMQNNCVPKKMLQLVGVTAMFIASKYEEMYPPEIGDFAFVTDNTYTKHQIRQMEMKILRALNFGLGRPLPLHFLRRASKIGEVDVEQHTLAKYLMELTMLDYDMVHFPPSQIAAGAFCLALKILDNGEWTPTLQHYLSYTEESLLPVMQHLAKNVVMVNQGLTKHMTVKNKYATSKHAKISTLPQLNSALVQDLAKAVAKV
- EXPERIMENT: Biochemical CDK inhibition assay (Caliper mobility shift), CDK1/Cyclin B1
- MEASUREMENT CONDITIONS: 1.0 mM ATP or ATP Km, 1.5 nM enzyme, apparent IC50
pIC50: −log10 of the molar value.
# pIC50 annotations
READOUT LABEL: pIC50

CNC(=O)O[C@@H]1CC[C@H](c2cc(Nc3cncc(OCC4CC4)n3)n[nH]2)C1: > 7.00
CC(C)(O)c1cnc(Nc2cc([C@H]3CC[C@@H](OC(=O)N4CCC4(C)C)C3)[nH]n2)cn1: > 7.00
CC(C)NC(=O)O[C@@H]1CC[C@H](c2cc(Nc3cnc(C#N)cn3)n[nH]2)C1: 6.30 to 7.00
